SGCB cell-surface expression functional score (log10) values by entry
B1: library; numbered along this chain (parent)
chain: MAAAAAAAAEQQSSNGPVKKSMREKAVERRSVNKEHNSNFKAGYIPIDEDRLHKTGLRGRKGNLAICVIILLFILAVINLIITLVIWAVIRIGPNGCDSMEFHESGLLRFKQVSDMGVIHPLYKSTVGGRRNENLVITGNNQPIVFQQGTTKLSVENNKTSITSDIGMQFFDPRTQNILFSTDYETHEFHLPSGVKSLNVQKASTERITSNATSDLNIKVDGRAIVRGNEGVFIMGKTIEFHMGGNMELKAENSIILNGSVMVSTTRLPSSSSGDQLGSGDWVRYKLCMCADGTLFKVQVTSQNMGCQISDNPCGNTH

- Variants of: B1
- assay: SGCB cell-surface expression functional score (HA stain, bin4 vs bin1, normalised to synonymous) (log10 ratio); higher = more cell-surface SGCB (functional)
Respond numerically, and do not add a unit to the figure.

Example results:
{"alteration": "F233Y", "valueMeasured": 0.56}
{"alteration": "P46V", "valueMeasured": -0.23}
{"alteration": "H103A", "valueMeasured": 0.32}

// switching to the query variant
Input line: Give the measured SGCB cell-surface expression functional score (log10) of D50C .
Output line: 0
